Data provenance: paper PMC8190884

# SYSTEM TESTED: UniProt P04585
# ASSAY NAME: Pre-steady-state observed incorporation rate constant
# Format: biochemical, HIV-1
# CONDITION CONTEXT: 5 μM nucleotide, 0.5 mM free Mg2+, 37 °C
What kobs ± standard deviation was measured for each of the following?
Numbers only, in s^–1.

Example compounds with recorded kobs ± standard deviation:
{"COMPOUND": "CC[C@]1(COP(=O)(O)OP(=O)(O)OP(=O)(O)O)O[C@@H](n2cc(C)c(=O)[nH]c2=O)C[C@@H]1O", "UNIT OF MEASURE": "s^–1", "kobs ± standard deviation": 1.3}
{"COMPOUND": "Cc1cn([C@H]2C[C@H](O)[C@@](C)(COP(=O)(O)OP(=O)(O)OP(=O)(O)O)O2)c(=O)[nH]c1=O", "UNIT OF MEASURE": "s^–1", "kobs ± standard deviation": 4.5}
{"COMPOUND": "Cc1cn([C@@H]2C[C@H](COP(=O)(O)OP(=O)(O)OP(=O)(O)O)[C@@H](O)C2)c(=O)[nH]c1=O", "UNIT OF MEASURE": "s^–1", "kobs ± standard deviation": 1.1}

Quick one: give me kobs ± standard deviation for each item below, same order please.
1. Cc1cn([C@H]2C[C@H](N)[C@@H](COP(=O)(O)OP(=O)(O)OP(=O)(O)O)O2)c(=O)[nH]c1=O
2. Cc1cn([C@H]2C[C@H](F)[C@@H](COP(=O)(O)OP(=O)(O)OP(=O)(O)O)O2)c(=O)[nH]c1=O

Result:
1: 0.81; 2: 0.54
